Molecular target: nucleoside hydrolase (Crithidia fasciculata, UniProt Q27546)
Construct: nucleoside hydrolase was purified from C. fasciculata as described above; endogenous in cells; host or cells: Crithidia fasciculata cells grown in a 300-liter fermenter
Sequence (Q27546 1-315): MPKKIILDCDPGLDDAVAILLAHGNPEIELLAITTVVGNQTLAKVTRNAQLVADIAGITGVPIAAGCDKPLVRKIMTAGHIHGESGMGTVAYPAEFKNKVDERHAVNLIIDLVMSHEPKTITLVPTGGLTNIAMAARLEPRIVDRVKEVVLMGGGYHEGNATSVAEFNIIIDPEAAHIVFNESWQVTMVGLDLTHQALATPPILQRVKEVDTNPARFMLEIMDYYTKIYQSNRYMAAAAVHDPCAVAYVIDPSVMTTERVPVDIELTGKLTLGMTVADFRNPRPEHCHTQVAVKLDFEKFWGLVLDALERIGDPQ
Assay: Inhibition of nucleoside hydrolase, inosine hydrolysis monitored at 280 nm, bis-tris pH 7.3
Type: biochemical
Conditions: read-out: inhibition constant
Recorded metric: pKi
Answers are plain numbers, as −log10 of the molar value.

I am curious: what pKi value has been reported for OC[C@H]1N[C@@H](c2ccccc2)[C@H](O)[C@@H]1O ? 6.82

---

target: nucleoside hydrolase (Crithidia fasciculata); construct: nucleoside hydrolase was purified from C. fasciculata as described above; endogenous in cells; host or cells: Crithidia fasciculata cells grown in a 300-liter fermenter; assay: Nucleoside hydrolase purified from C. fasciculata: substrate kinetics and inhibition (Table III); assay type: biochemical
Please provide measured pKi for the entries that follow.
Numbers only, as −log10 of the molar value.

Previously resolved entries follow.
> print(dat)
                                   molecule  numeric.result
1      O=c1[nH]cnc2nc[nH]c12 [Hypoxanthine]            2.21
2  CSC[C@H]1O[C@@H](n2cnc3c(N)ncnc32)[C@H](O)[C@@H]1O [5'-Methylthioadenosine]            2.24

Let us move to another entry and its pKi.
I am curious: what pKi value has been reported for O=c1[nH]cnc2c([C@@H]3O[C@H](CO)[C@@H](O)[C@H]3O)n[nH]c12 [Formycin B] ? 2.71

---

Target: IAG-nucleoside hydrolase (Trypanosoma brucei)
Assay: Inhibition of IAG-nucleoside hydrolase, initial rates
Conditions: read-out: Ki IAG-nucleoside hydrolase; Table VI; XIII: 560 μM nitrophenylriboside, 50 mM Hepes, pH 8.0, lower limit
Text: The enzyme was purified to apparent homogeneity as determined by denaturing polyacrylamide gel electrophoresis (Parkin, (1996) J. Biol. Chem. 271, 21713-21719). Some of the studies used the T. brucei brucei enzyme which was overexpressed in E. coli. Enzyme Assays. […] Reaction mixtures with nitrophenylribose as substrate were initiated by the addition of enzyme, and product formation was monitored by continuous recording at 400 nm. […]
pKi: −log10 of the molar value.
Recorded metric: pKi

I am curious: what pKi value has been reported for OC[C@H]1O[C@@H](c2ccccc2)[C@H](O)[C@@H]1O [XIII, 1-deoxy-1-C-phenyl-β-D-ribofuranose, reference compound] ? < 1.52

---

biological target: IU-nucleoside hydrolase (Crithidia fasciculata, UniProt Q27546, P2A); construct: contained the coding region for the enzyme; made in house; host or cells: E. coli BL21 (DE3)pLysS, pET3d plasmid; assay: biochemical; assay type: biochemical, C. fasciculata; conditions: KI IU-nucleoside hydrolase, Table V
Please provide measured pKi for the entries that follow.
One number for each entry, as −log10 of the molar value.

> print(dat)
                                   compound                              assay.target  recorded.metric  numeric.result
1  OC[C@H]1N[C@@H](c2ccc(Br)cc2)[C@H](O)[C@@H]1O [XII]  IU-nucleoside hydrolase (Crithidia fasciculata, UniProt Q27546, P2A)              pKi            7.55
2  O=C(O)c1ccc([C@@H]2N[C@H](CO)[C@@H](O)[C@H]2O)cc1 [VI]  IU-nucleoside hydrolase (Crithidia fasciculata, UniProt Q27546, P2A)              pKi            7.02
3  OC[C@H]1N[C@@H](c2ccc(Cl)cc2)[C@H](O)[C@@H]1O [XI]  IU-nucleoside hydrolase (Crithidia fasciculata, UniProt Q27546, P2A)              pKi            7.52
4  O=[N+]([O-])c1ccc([C@@H]2N[C@H](CO)[C@@H](O)[C@H]2O)cc1 [IV]  IU-nucleoside hydrolase (Crithidia fasciculata, UniProt Q27546, P2A)              pKi            5.96
5  Nc1ccc([C@@H]2N[C@H](CO)[C@@H](O)[C@H]2O)cc1 [X]  IU-nucleoside hydrolase (Crithidia fasciculata, UniProt Q27546, P2A)              pKi            7.52
6  O=[N+]([O-])c1cccc([C@@H]2N[C@H](CO)[C@@H](O)[C@H]2O)c1 [III]  IU-nucleoside hydrolase (Crithidia fasciculata, UniProt Q27546, P2A)              pKi            5.12

# map each compound to its pKi
1. OC[C@H]1N[C@@H](c2ccc(F)cc2)[C@H](O)[C@@H]1O [VIII]
2. OC[C@H]1N[C@@H](c2ccc(O)cc2)[C@H](O)[C@@H]1O [VII]

7.24
7.12

I am curious: what pKi value has been reported for Nc1cccc([C@@H]2N[C@H](CO)[C@@H](O)[C@H]2O)c1 [IX] ? 7.29

---

Molecular target: UniProtKB Q57ZL6
Experiment: Inhibition of IAG-nucleoside hydrolase, initial rates
Description: The enzyme was purified to apparent homogeneity as determined by denaturing polyacrylamide gel electrophoresis (Parkin, (1996) J. Biol. Chem. 271, 21713-21719). Some of the studies used the T. brucei brucei enzyme which was overexpressed in E. coli. Enzyme Assays. […] Reaction mixtures with nitrophenylribose as substrate were initiated by the addition of enzyme, and product formation was monitored by continuous recording at 400 nm. […]
Recorded metric: Ki (µM)
One number for each entry, in µM.

> print(dat)
                              sample.smiles  unit.text  numeric.result
1  OC[C@H]1N[C@@H](c2ccc(O)cc2)[C@H](O)[C@@H]1O         µM              35

Let us move to another entry and its Ki.
I am curious: what Ki value has been reported for Nc1ccc([C@@H]2N[C@H](CO)[C@@H](O)[C@H]2O)cc1 ? 12

---

target: IAG-nucleoside hydrolase (Trypanosoma brucei, UniProt Q57ZL6); experiment: Inhibition of IAG-nucleoside hydrolase, initial rates
Sequence (Q57ZL6 entry or part of it): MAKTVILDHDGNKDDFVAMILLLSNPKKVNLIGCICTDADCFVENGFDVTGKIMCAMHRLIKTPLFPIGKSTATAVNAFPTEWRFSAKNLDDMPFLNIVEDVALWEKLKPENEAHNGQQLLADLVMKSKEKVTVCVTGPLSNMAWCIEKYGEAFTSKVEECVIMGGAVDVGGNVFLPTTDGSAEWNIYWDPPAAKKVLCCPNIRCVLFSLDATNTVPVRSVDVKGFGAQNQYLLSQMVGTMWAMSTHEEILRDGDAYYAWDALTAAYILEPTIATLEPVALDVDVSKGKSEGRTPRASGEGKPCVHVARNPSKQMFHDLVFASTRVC
pKi: −log10 of the molar value.
Given measured pKi, output fulfilled if it is greater than or equal to 4 and not fulfilled if not.

Completed entries (count: 4):
> print(dat)
                                   compound  category.label
1  OC[C@H]1N[C@@H](c2ccc(F)cc2)[C@H](O)[C@@H]1O   not fulfilled
2  O=C(O)c1ccc([C@@H]2N[C@H](CO)[C@@H](O)[C@H]2O)cc1   not fulfilled
3  Nc1cccc([C@@H]2N[C@H](CO)[C@@H](O)[C@H]2O)c1       fulfilled
4  OC[C@H]1N[C@@H](c2ccccc2)[C@H](O)[C@@H]1O   not fulfilled

Confirm if pKi reported for the compound O=[N+]([O-])c1ccc([C@@H]2N[C@H](CO)[C@@H](O)[C@H]2O)cc1 is 4 or above. not fulfilled

Let us now turn to OC[C@H]1O[C@@H](c2ccccc2)[C@H](O)[C@@H]1O [XIII, 1-deoxy-1-C-phenyl-β-D-ribofuranose, reference compound] not fulfilled

Let us now turn to OC[C@H]1NC[C@H](O)[C@@H]1O fulfilled

Let us now turn to OC[C@H]1N[C@@H](c2ccc(Cl)cc2)[C@H](O)[C@@H]1O not fulfilled

---

Please provide measured pKi for the entries that follow.
Target: nucleoside hydrolase (Crithidia fasciculata, UniProt Q27546)
Construct: nucleoside hydrolase was purified from C. fasciculata as described above; endogenous in cells; host or cells: Crithidia fasciculata cells grown in a 300-liter fermenter
Test: Nucleoside hydrolase purified from C. fasciculata: substrate kinetics and inhibition (Table III)
Type: biochemical
Conditions: apparent constant, single inosine concentration near Km, three inhibitor concentrations; read-out: Ki(app)
Experimental: The assay volumes were […]. The reaction was terminated by the addition of […] of 1.0 M HCl. […] The color was developed at 95° C. for 8 minutes and the optical absorbance measured at 450 nm. Enzymatic activity was expressed as millimoles of reducing sugar formed per minute per milligram of protein. […] Arsenate readily replaces phosphate in the reaction and the product ribose 1-arsenate rapidly hydrolazes to release ribose which is detected in the reducing sugar assay. […]
One number for each entry, as −log10 of the molar value.

> print(dat)
                                   compound  numeric.result
1  O=c1[nH]cnc2c1ncn2[C@H]1C[C@H](O)[C@@H](CO)O1            2.64

Let us move to another entry and its pKi.
I am curious: what pKi value has been reported for Nc1ncnc2c1ncn2C1CC(O)C(CO)O1 (centres unmarked) ? 2.49
